# Protocol: Acute toxicity, oral, rats
# Setup conditions: rat, in vivo, male Wistar rats, suspension in 0.5% sodium carboxymethylcellulose, 7 days
Endpoint label: LD50 at 168 h (mg/kg)
Expressed in mg/kg, but write only the number.

INPUT: Dear colleague, I am looking for the recorded LD50 at 168 h of the following molecule: `CCCCCCCN1C(C)=CSC1=Cc1scc(C)[n+]1CCCCCCC`
OUTPUT: 470

Measured values drawn from patent US4771060A for this set.
